Values were extracted from patent US12454518B2.

Test system: MV4-11 cells
ASSAY_DETAILS: MV-4-11 cell viability assay
DETAILS: Homo sapiens, MV4-11, 72 h, read-out: MV4-11 EC50
pEC50: −log10 of the molar value.
EXPERIMENTAL_ENDPOINT: pEC50

COMPOUND | VAL
O=C1CCC(N2C(=O)c3ccc(NS(=O)(=O)c4ccccc4)cc3C2=O)C(=O)N1 (stereo not drawn) | < 5.00
O=C1CCC(N2C(=O)c3ccc(NS(=O)(=O)c4cccc(OC(F)(F)F)c4)cc3C2=O)C(=O)N1 (stereo not drawn) | < 5.00
Cc1ccc(S(=O)(=O)Nc2ccc3c(c2)C(=O)N(C2CCC(=O)NC2=O)C3=O)cc1Cl (stereo not drawn) | < 5.00
